TARGET_OR_SYSTEM: T1, hIL2Rg-Fc (SinoBiological cat#10555) (human, UniProt P31785 23-254, limits assumed)
T1 construct: Bought Fc fusion (SinoBiological cat#10555); P31785 is printed for hCD132 in the background; also called human IL2Rg-Fc; not shown: Fc of the bought fusion protein
T1 sequence (looked up): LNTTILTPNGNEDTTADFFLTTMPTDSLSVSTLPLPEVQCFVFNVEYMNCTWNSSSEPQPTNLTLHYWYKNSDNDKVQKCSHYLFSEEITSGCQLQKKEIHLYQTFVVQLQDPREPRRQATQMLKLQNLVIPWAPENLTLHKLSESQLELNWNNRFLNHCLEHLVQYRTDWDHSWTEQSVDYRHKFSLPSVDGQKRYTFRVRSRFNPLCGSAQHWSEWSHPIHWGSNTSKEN
EXPERIMENT_NOTES: SPR (Biacore T200), Fc-fused ligand captured on chip, dual VHH as analyte, 1:1 Langmuir fit
ASSAY_READOUT: pKd
Quick note: pKd means taking -log10 of the concentration in moles per liter.

Fill in: pKd of DR466(DR240-DR232) (bispecific antibody, Anti-hIL10Ra/hIL2Rg dual VHH with ASH6 handle; also called H7) QVQLQESGGGSVQAGGSLRLSCGASGYTYSSYCMGWFRQVPGKEREGVAVIDSDGSTSYADSVKGRFTISKDNGKNTLYLQMNSLKPEDTAMYYCAADLGHYRPPCGVLYLGMDYWGKGTQVTVSSGGGSQVQLQESGGGSVQAGGSLRLSCVASGYTSCMGWFRQAPGKEREAVATIYTRGRSIYYADSVKGRFTISQDNAKNTLYLQMNSLKPEDIAMYSCAAGGYSWSAGCEFNYWGQGTQVTVSSASHHHHHH is ___
7.68

I'd like to know its pKd. The binder in question is DR449(DR237-DR233) (bispecific antibody, Anti-hIL10Ra/hIL2Rg dual VHH with ASH6 handle; also called F3) QVQLQESGGGSVQAGGSLRLSCAASGYTYSMYCMGWFRQAPGKEREGVAQINSDGSTSYADSVKGRFTISKDNAKNTLYLQMNSLKPEDTAMYYCAADSRVYGGSWYERLCGPYTYEYNYWGQGTQVTVSSGGGSQVQLQESGGGSVQAGGSLRLSCTASGFTFDDSDMGWYRQAPGNECELVSTISSDGSTYYADSVKGRFTISQDNAKNTVYLQMNSLKPEDTAVYYCAAEPRGYYSNYGGRRECNYWGQGTQVTVSSASHHHHHH
7.52

Any idea what pKd was measured for DR442(DR236-DR232) (bispecific antibody, Anti-hIL10Ra/hIL2Rg dual VHH with ASH6 handle; also called F7) QVQLQESGGGSVQAGGSLRLSCAASRFTYSSYCMGWFRQAPGKEREGVASIDSDGSTSYTDSVKGRFTISKDNAKNTLYLQMNSLKPEDTAMYYCALDLMSTVVPGFCGFLLSAGMDYWGKGTQVTVSSGGGSQVQLQESGGGSVQAGGSLRLSCVASGYTSCMGWFRQAPGKEREAVATIYTRGRSIYYADSVKGRFTISQDNAKNTLYLQMNSLKPEDIAMYSCAAGGYSWSAGCEFNYWGQGTQVTVSSASHHHHHH ?
7.67
